Where do these numbers come from? They come from patent US20230407243A1.

# reported MICb Combined; entries follow
- Test system: EKO-35 acrBD408A
- Format: cell-based, Escherichia coli
- Details: strain EKO-35 acrBD408A; antibiotic in combination with NMP
Output spec: scalar in µg/mL, unitless text.

Consider the following illustrative entries.
[[record]]
molecule = "Cc1onc(-c2ccccc2)c1C(=O)N[C@@H]1C(=O)N2[C@@H]1SC(C)(C)[C@@H]2C(=O)O"
obs_value = 0.13

[[record]]
molecule = "CC[C@H]1OC(=O)[C@H](C)[C@@H](O[C@H]2C[C@@](C)(OC)[C@@H](O)[C@H](C)O2)[C@H](C)[C@@H](O[C@@H]2O[C@H](C)C[C@H](N(C)C)[C@H]2O)[C@](C)(O)C[C@@H](C)C(=O)[C@H](C)[C@@H](O)[C@]1(C)O"
obs_value = 0.5

[[record]]
molecule = "CC(=O)O[C@H]1C[C@@]2(C)[C@@H](C[C@@H](O)[C@H]3[C@@]4(C)CC[C@@H](O)[C@@H](C)[C@@H]4CC[C@@]32C)/C1=C(\\CCC=C(C)C)C(=O)O"
obs_value = 1


We next turn to a different compound, shown below.
Query: Need MICb Combined, item CC(=O)NC[C@H]1CN(c2ccc(N3CCOCC3)c(F)c2)C(=O)O1
Reply: 8

---

- Test system: wild-type E. coli K-12
- Type: cell-based, Escherichia coli
- Details: strain K-12; NMP + antibiotic
# reported FICI; entries follow

[[record]]
molecule = "CC(=O)O[C@H]1C[C@@]2(C)[C@@H](C[C@@H](O)[C@H]3[C@@]4(C)CC[C@@H](O)[C@@H](C)[C@@H]4CC[C@@]32C)/C1=C(\\CCC=C(C)C)C(=O)O"
obs_value = 0.375


We next turn to a different compound, shown below.
Query: Need FICI, item CC[C@H]1OC(=O)[C@H](C)[C@@H](O[C@H]2C[C@@](C)(OC)[C@@H](O)[C@H](C)O2)[C@H](C)[C@@H](O[C@@H]2O[C@H](C)C[C@H](N(C)C)[C@H]2O)[C@](C)(O)C[C@@H](C)C(=O)[C@H](C)[C@@H](O)[C@]1(C)O
Reply: 0.625

---

- Test system: ΔtolC-Pore
- Test Protocol: microbe, parasite or virus in culture
- Type: cell-based, Escherichia coli
- Details: Escherichia coli, 18 h, read-out: Minimum inhibitory concentration, ΔtolC-Pore
Endpoint Name: MIC (µg/mL)
Output spec: scalar in µg/mL, unitless text.

[[record]]
molecule = "CCn1cc(C(=O)O)c(=O)c2ccc(C)nc21"
experimental_system = "ΔtolC-Pore"
endpoint_name = "MIC"
unit_name = "µg/mL"
obs_value = 1.25


Query: Need MIC, item CC1(C)S[C@@H]2[C@H](NC(=O)[C@H](N)c3ccccc3)C(=O)N2[C@H]1C(=O)O
Reply: 1.56

Query: Need MIC, item CN(C)[C@@H]1C(O)=C(C(N)=O)C(=O)[C@@]2(O)C(O)=C3C(=O)c4c(O)cccc4[C@@](C)(O)[C@H]3C[C@@H]12
Reply: 0.391

Query: Need MIC, item CN(C)c1ccc(O)c2c1C[C@H]1C[C@H]3[C@H](N(C)C)C(O)=C(C(N)=O)C(=O)[C@@]3(O)C(O)=C1C2=O
Reply: 0.098

Query: Need MIC, item O=C(N[C@H](CO)[C@H](O)c1ccc([N+](=O)[O-])cc1)C(Cl)Cl
Reply: 0.781

Query: Need MIC, item O=C(O)c1cn(C2CC2)c2cc(N3CCNCC3)c(F)cc2c1=O
Reply: 0.002

Query: Need MIC, item Nc1ccc(S(=O)(=O)Nc2nccs2)cc1
Reply: 2.5

Query: Need MIC, item CC[n+]1c(-c2ccccc2)c2cc(N)ccc2c2ccc(N)cc21 [ethidium bromide]
Reply: 3.12

---

# reported MICb Alone; entries follow
- System: EKO-35 porinated strain expressing acrB
- Test Protocol: Checkerboard synergy (FICI), porinated strain
- Type: cell-based, Escherichia coli
- Details: EKO-35 acrB Pore; antibiotic alone (PAβN checkerboard)

[[record]]
molecule = "CC[C@H]1OC(=O)[C@H](C)[C@@H](O[C@H]2C[C@@](C)(OC)[C@@H](O)[C@H](C)O2)[C@H](C)[C@@H](O[C@@H]2O[C@H](C)C[C@H](N(C)C)[C@H]2O)[C@](C)(O)C[C@@H](C)C(=O)[C@H](C)[C@@H](O)[C@]1(C)O"
endpoint_name = "MICb Alone"
obs_value = "32 µg/mL"

[[record]]
molecule = "CC(=O)NC[C@H]1CN(c2ccc(N3CCOCC3)c(F)c2)C(=O)O1"
endpoint_name = "MICb Alone"
obs_value = "128 µg/mL"

[[record]]
molecule = "CC(=O)O[C@H]1C[C@@]2(C)[C@@H](C[C@@H](O)[C@H]3[C@@]4(C)CC[C@@H](O)[C@@H](C)[C@@H]4CC[C@@]32C)/C1=C(\\CCC=C(C)C)C(=O)O"
endpoint_name = "MICb Alone"
obs_value = "512 µg/mL"


Query: Need MICb Alone, item CO[C@@H]1[C@@H](OC(N)=O)[C@@H](O)[C@H](Oc2ccc3c(O)c(NC(=O)c4ccc(O)c(CC=C(C)C)c4)c(=O)oc3c2C)OC1(C)C
Reply: 512 µg/mL

---

- Tested on: EKO-35 araC::emrAB Pore
- Test Protocol: MIC susceptibility profiling, porinated efflux platform
- Assay type: cell-based, Escherichia coli
- Details: EKO-35 araC::emrAB Pore compared to EKO-35-Pore
# reported Fold changes of MICs; entries follow
Output spec: scalar in fold, unitless text.

[[record]]
compound = "CCn1cc(C(=O)O)c(=O)c2ccc(C)nc21"
endpoint_name = "Fold changes of MICs"
unit_name = "fold"
obs_value = 8


Query: Need Fold changes of MICs, item O=C(Nc1ccc(C(F)(F)F)cc1)Nc1ccc(C(F)(F)F)cc1
Reply: 1

Query: Need Fold changes of MICs, item COC(=O)c1sc(N2CCCC2)c(C#N)c1-c1cccs1
Reply: 16

Query: Need Fold changes of MICs, item CC1(C)S[C@@H]2[C@H](NC(=O)[C@H](N)c3ccccc3)C(=O)N2[C@H]1C(=O)O
Reply: 1

Query: Need Fold changes of MICs, item CC[C@H]1OC(=O)[C@H](C)[C@@H](O[C@H]2C[C@@](C)(OC)[C@@H](O)[C@H](C)O2)[C@H](C)[C@@H](O[C@@H]2O[C@H](C)C[C@H](N(C)C)[C@H]2O)[C@](C)(O)C[C@@H](C)CN(C)[C@H](C)[C@@H](O)[C@]1(C)O
Reply: 1

Query: Need Fold changes of MICs, item CN(C)c1ccc(O)c2c1C[C@H]1C[C@H]3[C@H](N(C)C)C(O)=C(C(N)=O)C(=O)[C@@]3(O)C(O)=C1C2=O
Reply: 1

Query: Need Fold changes of MICs, item [H]/N=C(\N/C(=N/[H])NCCCCCCNC(=N)NC(=N)Nc1ccc(Cl)cc1)Nc1ccc(Cl)cc1
Reply: 1

Query: Need Fold changes of MICs, item CCn1cc(C(=O)O)c(=O)c2cc(F)c(N3CCNCC3)cc21
Reply: 2

Query: Need Fold changes of MICs, item Cn1cc(Br)c(-c2cccc(NC(=O)Nc3ccc(OC(F)(F)F)cc3)c2)n1
Reply: 1

Query: Need Fold changes of MICs, item CN[C@@H]1[C@H](O)[C@H](NC)[C@H]2O[C@@]3(O)C(=O)C[C@@H](C)O[C@H]3O[C@@H]2[C@H]1O
Reply: 1

Query: Need Fold changes of MICs, item O=C(Nc1cccc(Oc2c(F)c(F)c(F)c(F)c2F)c1)c1ccccc1
Reply: 1

Query: Need Fold changes of MICs, item O=C(N[C@H](CO)[C@H](O)c1ccc([N+](=O)[O-])cc1)C(Cl)Cl
Reply: 1

Query: Need Fold changes of MICs, item C[C@H](CCC(=O)NCCS(=O)(=O)[O-])[C@H]1CC[C@H]2[C@@H]3CC[C@@H]4C[C@H](O)CC[C@]4(C)[C@H]3C[C@H](O)[C@]12C.[Na+] [sodium taurodeoxycholate]
Reply: 2

Query: Need Fold changes of MICs, item CCCCCCCCCCCCOS(=O)(=O)[O-].[Na+] [SDS, sodium dodecyl sulphate]
Reply: 4

Query: Need Fold changes of MICs, item NCCCNCCCCNCCCN
Reply: 1

Query: Need Fold changes of MICs, item CC(C)(C)c1cc(C(=O)NNC(=O)Nc2cccc3ccccc23)n(Cc2ccc(F)cc2)n1
Reply: 8

Query: Need Fold changes of MICs, item CC(C)c1ccc(C=C(C#N)c2nc3ccccc3[nH]2)cc1
Reply: 2

---

- Test system: EKO-35 araC::emrKY Pore
- Test Protocol: MIC susceptibility profiling, porinated efflux platform
- Assay type: cell-based, Escherichia coli
- Details: EKO-35 araC::emrKY Pore; technical duplicate
Endpoint Name: Minimum inhibitory concentration

[[record]]
compound = "CC(C)c1ccc(C=C(C#N)c2nc3ccccc3[nH]2)cc1"
obs_value = "320 µg/mL"

[[record]]
compound = "C[C@H](CCC(=O)NCCS(=O)(=O)[O-])[C@H]1CC[C@H]2[C@@H]3CC[C@@H]4C[C@H](O)CC[C@]4(C)[C@H]3C[C@H](O)[C@]12C.[Na+] [sodium taurodeoxycholate]"
obs_value = "250 µg/mL"

[[record]]
compound = "Cn1cc(Br)c(-c2cccc(NC(=O)Nc3ccc(OC(F)(F)F)cc3)c2)n1"
obs_value = "320 µg/mL"

[[record]]
compound = "O=c1oc(-c2ccccc2Cl)nn1-c1ccc(C(F)(F)F)cn1"
obs_value = "10 µg/mL"

[[record]]
compound = "Nc1ccccc1SCc1nc(-c2ccc(Cl)cc2)no1"
obs_value = "2.5 µg/mL"


Query: API: value(readout= Minimum inhibitory concentration, system= EKO-35 araC::emrKY Pore, query= N#CC(=NNc1ccc(F)c(Cl)c1)C(=O)c1ccc(Cl)cc1 )
Reply: 320 µg/mL

Query: API: value(readout= Minimum inhibitory concentration, system= EKO-35 araC::emrKY Pore, query= CC(C)(C)c1cc(C(=O)NNC(=O)Nc2cccc3ccccc23)n(Cc2ccc(F)cc2)n1 )
Reply: 1.25 µg/mL

Query: API: value(readout= Minimum inhibitory concentration, system= EKO-35 araC::emrKY Pore, query= COC(=O)c1sc(N2CCCC2)c(C#N)c1-c1cccs1 )
Reply: 10 µg/mL

Query: API: value(readout= Minimum inhibitory concentration, system= EKO-35 araC::emrKY Pore, query= C=C1CCO[C@]2([C@@H](O)[C@@](C)(O)CO)NC(=O)[C@@]1(O)NC2=O )
Reply: 200 µg/mL

Query: API: value(readout= Minimum inhibitory concentration, system= EKO-35 araC::emrKY Pore, query= N#CC(C#N)=NNc1cccc(Cl)c1 )
Reply: 6.25 µg/mL

Query: API: value(readout= Minimum inhibitory concentration, system= EKO-35 araC::emrKY Pore, query= N#CC(C#N)=NNc1ccc(-n2ccc(C(F)(F)F)n2)cc1 )
Reply: 80 µg/mL

Query: API: value(readout= Minimum inhibitory concentration, system= EKO-35 araC::emrKY Pore, query= O=C(Nc1cccc(Oc2c(F)c(F)c(F)c(F)c2F)c1)c1ccccc1 )
Reply: 320 µg/mL

Query: API: value(readout= Minimum inhibitory concentration, system= EKO-35 araC::emrKY Pore, query= O=C(Nc1ccccc1C(=O)Nc1nnc(C(F)(F)F)s1)c1ccccc1Cl )
Reply: 320 µg/mL

Query: API: value(readout= Minimum inhibitory concentration, system= EKO-35 araC::emrKY Pore, query= O=C(Nc1ccc(C(F)(F)F)cc1)Nc1ccc(C(F)(F)F)cc1 )
Reply: 320 µg/mL

Query: API: value(readout= Minimum inhibitory concentration, system= EKO-35 araC::emrKY Pore, query= O=[N+]([O-])c1ccc2c(c1)C(=NO)c1cc([N+](=O)[O-])ccc1-2 )
Reply: 0.078 µg/mL

Query: API: value(readout= Minimum inhibitory concentration, system= EKO-35 araC::emrKY Pore, query= N#CC(=NNc1cccc(C(F)(F)F)c1)C(=O)c1ccsc1 )
Reply: 320 µg/mL

Query: API: value(readout= Minimum inhibitory concentration, system= EKO-35 araC::emrKY Pore, query= O=C(NC(=O)N1CCc2c([nH]c3ccccc23)C1C(F)(F)F)c1ccccc1 (centres unmarked) )
Reply: 2.5 µg/mL

Query: API: value(readout= Minimum inhibitory concentration, system= EKO-35 araC::emrKY Pore, query= O=C(Nc1ccccc1)Nc1ccc(Br)c(C(F)(F)F)c1 )
Reply: 320 µg/mL

Query: API: value(readout= Minimum inhibitory concentration, system= EKO-35 araC::emrKY Pore, query= C[n+]1c2cc(N)ccc2cc2ccc(N)cc21.[Cl-] )
Reply: 0.098 µg/mL

Query: API: value(readout= Minimum inhibitory concentration, system= EKO-35 araC::emrKY Pore, query= N#Cc1ccc(-c2c(NC(=O)C(Cl)Cl)oc(-c3cccs3)c2C#N)cc1 )
Reply: 320 µg/mL
